# ASSAY_REMARKS: Cmax in rat plasma after 30mg/kg oral dose
# Format: ADME, organism-based
# Design: dose 30 mg/kg, route oral
Record form. Attribute: Cmax. Fill in for each entry.
Answers are plain numbers, in ng/mL.

O=C(NO)[C@H]1CCCCN1S(=O)(=O)N1CC=C(c2ccc(F)cc2)CC1; 3060

Now for a further molecule.
Notebook: `CN(C)C(=O)N1CCN(S(=O)(=O)N2CC=C(c3ccc(F)cc3)CC2)[C@@H](C(=O)NO)C1` , Cmax read as 1050
